Entry source: the supplement of paper PMC10567573

Assign protein stability index to each entry below.
B1: C1orf137 (parent)
chain: LPQETNLTLKVCKPQAPQKLDPTL

Variants of: B1
test_method_notes: protein stability index of a GFP-peptide fusion (GPS, HEK-293T) (PSI 1-6); higher = more stable;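 note: lentivirally expressed fusions sorted by FACS into six bins by GFP to DsRed ratio, PSI derived from sequencing read proportions per bin multiplied by bin number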
setup_conditions: c terminus: a fixed tail appended
Keep the answer to the number alone.

I would be grateful if you could share the reported protein stability index for LPQETNLTLKVCKPQAAQKLDPTL [P17A] .
3.97

Now give it for LPQETNLTLKVCKHQAPQKLDPTL [P14H] too.
4.07

And what about the variant LIQETNLTLKVCKPQAPQKLDPTL [P2I] ?
3.49

And for LPQETNLTLKVCKFQAPQKLDPTL [P14F] ?
2.71

Same question for LPQETNFTLKVCKPQAPQKLDPTL [L7F] please.
2.92

Then what about the variant LPQETNLTLKVCKPQAPQILDPTL [K19I] ?
2.54

Further, for LPQETNLTLKVCKPQAPQKLDPTY [L24Y] ?
3.37

Another variant: LPQETNLTLKVCKPQAPQALDPTL [K19A]
3.8

And for LPQETNLTLKVCKPQAPQKIDPTL [L20I] ?
3.42

Item: LPQHTNLTLKVCKPQAPQKLDPTL [E4H]
3.08

Also LPQETNLTLKVCKPQAPQKSDPTL [L20S] ?
4.34

// query: LHQETNLTLKVCKPQAPQKLDPTL [P2H]
3.5

Another variant to check: LPQETNLTLKVCKPQADQKLDPTL [P17D]
4.52

Would you kindly repeat that for LPQETNLTLKVCKPQHPQKLDPTL [A16H] ?
4.14

Here is the next variant: LPQETNLTLKVCKPQAPQKFDPTL [L20F]
3.31

Try the variant LPQETNLTLKVCKPQAPQKLDTTL [P22T]
3.54

Same question for LPQEVNLTLKVCKPQAPQKLDPTL [T5V] please.
3.04

Another variant to look at: LPQETNLTLKVCKPQAPQGLDPTL [K19G]
3.5

Can you handle LTQETNLTLKVCKPQAPQKLDPTL [P2T] next?
3.92

Please answer likewise for LPQETNLTLKVCKTQAPQKLDPTL [P14T]
4.16
